// OX2R agonist activity (3 μM, %) lookup, one value per entry
Target: human orexin type 2 receptor (Homo sapiens)
Construct: human orexin type 2 receptor cDNA was inserted into pcDNA3.1(+) plasmid vector (Invitrogen); expressed in transfected cells
Sequence (O43614 1-444): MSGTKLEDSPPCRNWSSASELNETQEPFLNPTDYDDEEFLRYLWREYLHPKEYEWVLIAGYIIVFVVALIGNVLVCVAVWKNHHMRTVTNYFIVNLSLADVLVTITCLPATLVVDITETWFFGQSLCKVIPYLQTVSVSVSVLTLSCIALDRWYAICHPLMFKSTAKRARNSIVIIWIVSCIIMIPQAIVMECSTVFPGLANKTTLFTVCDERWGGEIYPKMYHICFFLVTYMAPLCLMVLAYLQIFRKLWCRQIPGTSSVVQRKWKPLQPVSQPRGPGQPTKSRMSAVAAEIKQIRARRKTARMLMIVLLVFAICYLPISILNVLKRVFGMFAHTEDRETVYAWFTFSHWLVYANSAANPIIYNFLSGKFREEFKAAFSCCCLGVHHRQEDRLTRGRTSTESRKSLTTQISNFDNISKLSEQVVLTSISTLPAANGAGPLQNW
Test: Measurement of orexin type 2 receptor agonist activity (calcium fluorescence, CHO cells expressing hOX2R)
Type: cell-based
Conditions: test compound 3 μM; CHO cells expressing human OX2 receptor; DMSO = 0%, orexin A (human) = 100%
Excerpt: To obtain a cell clone stably expressing human orexin type 2 receptor, human orexin type 2 receptor cDNA was inserted into pcDNA3.1(+) plasmid vector (Invitrogen), and a plasmid DNA for expression of human orexin type 2 receptor (pcDNA3.1(+)/hOX2R) was cloned. The plasmid DNA was introduced into CHO-dhfr cell by an electroporation method, and human orexin type 2 receptor expressing clone cells were obtained by limiting dilution method by using G418 drug resistance as a selection marker. […]
Record the value in %, omitting the unit from your answer.

>  <COMPOUND>
CCNC(=O)N1CCC[C@H](NS(C)(=O)=O)[C@@H]1Cc1cccc(-c2ccc(C(F)(F)F)cc2)c1 (relative stereo) [Example 35]

>  <UNIT_DESCRIPTOR>
%

>  <OX2R agonist activity (3 μM, %)>
41

$$$$
>  <COMPOUND>
COC1(C(=O)N2CC[C@H](NS(C)(=O)=O)[C@@H]2Cc2cccc(-c3cccc(F)c3)c2)CCC1 [Example 314]

>  <UNIT_DESCRIPTOR>
%

>  <OX2R agonist activity (3 μM, %)>
107

$$$$
>  <COMPOUND>
CS(=O)(=O)N[C@H]1CCN(C(=O)N2CCC2)[C@H]1Cc1cccc(-c2cccc(F)c2)c1F [Example 352]

>  <UNIT_DESCRIPTOR>
%

>  <OX2R agonist activity (3 μM, %)>
102

$$$$

Query: Name the recorded OX2R agonist activity (3 μM, %) for CC(C)OC(=O)N1CCC[C@H](NS(=O)(=O)C2CC2)[C@@H]1Cc1cccc(-c2ccccc2)n1 (relative stereo) [Example 178] .
Reply: 99

---

// OX2R agonist activity (3 μM, %) lookup, one value per entry
target: human orexin type 2 receptor (Homo sapiens); construct: human orexin type 2 receptor cDNA was inserted into pcDNA3.1(+) plasmid vector (Invitrogen); expressed in transfected cells; assay: Measurement of orexin type 2 receptor agonist activity (calcium fluorescence, CHO cells expressing hOX2R); type: cell-based; conditions: test compound 3 μM; CHO cells expressing human OX2 receptor; DMSO = 0%, orexin A (human) = 100%
Record the value in %, omitting the unit from your answer.

Examples from the recorded data:
>  <COMPOUND>
CCS(=O)(=O)N[C@H]1CCN(C(=O)N2CCC2)[C@H]1Cc1cccc(-c2ccccc2)c1 [Example 364]

>  <OX2R agonist activity (3 μM, %)>
104

$$$$
>  <COMPOUND>
CS(=O)(=O)N[C@H]1CCN(C(=O)N2CCC2)[C@H]1Cc1cccc(-c2cccc(F)c2)n1 (relative stereo) [Example 333]

>  <OX2R agonist activity (3 μM, %)>
101

$$$$
>  <COMPOUND>
CS(=O)(=O)N[C@H]1CCN(C(=O)C2(F)CCC2)[C@H]1Cc1cccc(-c2cccc(F)c2)c1 [Example 266]

>  <OX2R agonist activity (3 μM, %)>
107

$$$$
>  <COMPOUND>
CC(C)(O)C(=O)N1CC[C@H](NS(=O)(=O)CF)[C@@H]1Cc1cccc(-c2cc(F)cc(F)c2)c1 [Example 421]

>  <OX2R agonist activity (3 μM, %)>
106

$$$$

Query: What OX2R agonist activity (3 μM, %) appears in the records for this compound with human orexin type 2 receptor (Homo sapiens)? CS(=O)(=O)N[C@H]1CCN(C(=O)C2CCC2)[C@H]1Cc1ccc(F)c(-c2cccc(F)c2)c1 (relative stereo) [Example 304]
Reply: 94

Query: What OX2R agonist activity (3 μM, %) appears in the records for this compound with human orexin type 2 receptor (Homo sapiens)? CCNC(=O)N1CCC[C@H](NS(C)(=O)=O)[C@@H]1Cc1cccc(Cc2cccc(C)c2)c1 (relative stereo) [Example 2]
Reply: 90
